Target: T1, biotinylated α-cobratoxin from Naja kaouthia (Naja kaouthia, biotin through amine coupling (NHS-PEG4-Biotin), sites not stated)
T1 chain: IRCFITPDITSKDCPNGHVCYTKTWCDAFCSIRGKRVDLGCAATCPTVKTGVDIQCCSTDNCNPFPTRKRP
Test: BLI
Conditions: both partners purified

binder: D11_E50A scFv (scFv, V domains shown, source: E. coli BL21(DE3)) VH: QVQLVQSGAEVKKPGSSVKVSCKASGGTFSSYAISWVRQAPGQGLEWMGGIIPIFGTANYAQKFQGRVTITADESTSTAYMELRSLRSDDTAVYYCARDNLGYCSGGSCYSDYYYYYMDVWGQGTLVTVSS VL: NFMLTQPRSVSESPGKTVTISCTRSSGSIGSDYVHWYQQRPGSSPTTVIYADNQRPSGVPDRFSGSIDSSSNSASLTISGLKTEDEADYYCQSYDRSNHEVVFGGGTKLTVL
scale-unit: nM
Kd: 158
--
binder: D11 scFv (scFv, V domains shown) VH: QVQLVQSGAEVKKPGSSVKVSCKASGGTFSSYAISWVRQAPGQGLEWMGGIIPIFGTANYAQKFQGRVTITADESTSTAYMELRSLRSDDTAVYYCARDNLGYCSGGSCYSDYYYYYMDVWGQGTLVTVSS VL: NFMLTQPRSVSESPGKTVTISCTRSSGSIGSDYVHWYQQRPGSSPTTVIYEDNQRPSGVPDRFSGSIDSSSNSASLTISGLKTEDEADYYCQSYDRSNHEVVFGGGTKLTVL
scale-unit: nM
Kd: 44.4
--
binder: D11_Y49S scFv (scFv, V domains shown, source: E. coli BL21(DE3)) VH: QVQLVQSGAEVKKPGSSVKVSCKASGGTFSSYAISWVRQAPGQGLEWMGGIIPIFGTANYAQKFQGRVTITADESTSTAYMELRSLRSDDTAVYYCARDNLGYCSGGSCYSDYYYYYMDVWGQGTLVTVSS VL: NFMLTQPRSVSESPGKTVTISCTRSSGSIGSDYVHWYQQRPGSSPTTVISEDNQRPSGVPDRFSGSIDSSSNSASLTISGLKTEDEADYYCQSYDRSNHEVVFGGGTKLTVL
scale-unit: nM
Kd: 48.8
--
binder: A01 scFv (scFv, V domains shown) VH: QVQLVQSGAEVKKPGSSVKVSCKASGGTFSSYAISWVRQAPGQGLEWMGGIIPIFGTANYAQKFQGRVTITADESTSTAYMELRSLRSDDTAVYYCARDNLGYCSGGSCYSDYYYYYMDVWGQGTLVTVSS VL: SYELTQPPSVSVAPGRTATITCEGDNIGQQIVHWYQQKPGQAPVAVISSDSDRPSGIPERFSGSNSGNTATLTISRVEAGDEADYYCQVWDSGSDHVVFGGGTKVTVL
scale-unit: nM
Kd: 52.2
--
binder: D11_Y49A scFv (scFv, V domains shown, source: E. coli BL21(DE3)) VH: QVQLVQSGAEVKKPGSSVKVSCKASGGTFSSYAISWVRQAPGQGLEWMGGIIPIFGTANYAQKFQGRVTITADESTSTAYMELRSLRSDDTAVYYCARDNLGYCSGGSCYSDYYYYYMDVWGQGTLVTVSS VL: NFMLTQPRSVSESPGKTVTISCTRSSGSIGSDYVHWYQQRPGSSPTTVIAEDNQRPSGVPDRFSGSIDSSSNSASLTISGLKTEDEADYYCQSYDRSNHEVVFGGGTKLTVL
scale-unit: nM
Kd: 68.8

Each recorded value in this set is attributed to paper PMC12439581.
